Target: T1, human IL-1RAcP on 293T/17-FR cells (human, UniProt Q9NPH3 21-570)
T1 sequence (looked up): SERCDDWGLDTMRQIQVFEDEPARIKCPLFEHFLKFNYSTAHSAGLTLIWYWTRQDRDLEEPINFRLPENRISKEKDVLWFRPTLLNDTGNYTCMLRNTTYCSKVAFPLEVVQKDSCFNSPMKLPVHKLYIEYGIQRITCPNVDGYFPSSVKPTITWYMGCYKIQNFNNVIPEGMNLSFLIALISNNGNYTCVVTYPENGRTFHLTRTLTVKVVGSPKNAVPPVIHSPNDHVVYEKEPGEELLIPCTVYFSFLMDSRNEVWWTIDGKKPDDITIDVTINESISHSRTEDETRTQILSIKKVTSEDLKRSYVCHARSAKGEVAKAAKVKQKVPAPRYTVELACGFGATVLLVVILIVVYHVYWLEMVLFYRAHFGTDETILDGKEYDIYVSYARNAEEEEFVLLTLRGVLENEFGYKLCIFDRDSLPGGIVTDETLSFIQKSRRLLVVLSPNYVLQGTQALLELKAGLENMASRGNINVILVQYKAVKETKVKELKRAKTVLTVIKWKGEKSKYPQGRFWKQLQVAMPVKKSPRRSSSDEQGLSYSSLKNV
Test: cell-based or functional assay
readout_name: functional reporter gene assay (% inhibition), 5 µg/mL mAb (%)
API: value field is a number in %; no unit string.

Return the recorded functional reporter gene assay (% inhibition), 5 µg/mL mAb value; entry: P013.S.02.B.A05 (antibody, V domains shown, rabbit monoclonal antibody; also called P013.A.00031.D11) VH: QEQLVESGGGLVQPEGSLTLTCQASGFTFSSYYVICWVRQAPGKGLEWIACIGTGDGLTYYASWAKGRFTISKTSSTTVTLQMTSLTAADTATYFCARDRYATVSGILNLWGPGTLVTVSS VL: DVVMTQTPASVEAAVGGTVTIKCQASQNIYSNCAWYQQKLGQRPKLLIYYVSTLESGVPSRFEGSGYGTEFTLTISDLQSADAATYYCQYTYDSSSSTSWAFGGGTEVVVK 48

Return the recorded functional reporter gene assay (% inhibition), 5 µg/mL mAb value; entry: P013.S.02.B.D02 (antibody, V domains shown, rabbit monoclonal antibody; also called P013.A.00086.F05) VH: QSLEESGGDLVKPGASLKLSCTASGVSFSSAYWMCWVRQAPGKGLEWIACIYAGSSGSTYYASWAKGRFTISKTSSTTVTLQMTSLTAADTATYFCARHAAWFELDLWGPGTLVTVSS VL: ALVMTQTPSPVSAAVGGTVTINCQASQNIASAYLSWYQQKPGQPPKLLIYAASTLTDGVPSRFKGSGSVTEFTLTISGVQSDDAATYYCAGYKSYTDDEFAFGGGTEVVVK 79

Return the recorded functional reporter gene assay (% inhibition), 5 µg/mL mAb value; entry: P013.S.01.B.G05 (antibody, V domains shown, rabbit monoclonal antibody; also called P013.A.00088.C10) VH: LEQSGGGAEGGLVKPGGSLELCCKASGFSLSSAYWICWVRQAPGKGLEWVGCIYADSSSITYYASWVNGRFTLSRDIDQSTGCLQLNSLTAADTAMYYCARDYGGSGYNFNLWGQGTLVTVSS VL: ALVMTQTPSPVSAAVGGTVTISCQASEDIYSNLAWYQQKRGQPPKLLIYYASTLASGVPSRFSGSGSGTEFTLTISGLQSDDAATYYCLGVCTYINANGWDNAFGGGTEVVVK 93
